Data origin: paper PMC4983199

- target-or-system: T1, ZIKV E protein domain III (DIII), strain H/PF/2013 (Zika virus H/PF/2013)
- T1 chain: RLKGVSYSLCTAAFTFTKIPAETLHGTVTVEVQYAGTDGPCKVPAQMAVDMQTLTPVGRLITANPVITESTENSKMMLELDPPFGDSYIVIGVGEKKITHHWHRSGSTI
- assay-name: BLI
attribute-measured: Kd (nM)
Answers are plain numbers, in nM.

>>> experimental_value("ZV-67 mouse monoclonal antibody (antibody, V domains shown) VH: QAQLQQSGTGLARPGASVKLSCKASGYTFTSYGISWVTQRAGQGLEWIGVIYPRSGNTYYNEKFRGKATLTADKSSSSAYMELRGLTAEDSAVYFCARENYGSVYWGQGTTLTVSS VL: DIVMTQSQKFMSTSVGDRVSITCKASQNVGTAVAWYQQKPGQSPKLLIYSASNRYTGVPDRFTGSGSGTDFTLTISNMQSEDLADYFCQQFSSYPYTFGGGTKLEIK")
8.8
>>> experimental_value("ZV-2 mouse monoclonal antibody (antibody, V domains shown) VH: QVQLQESGAELMKPGASVKLSCKTSGYTFIGYWIEWLKQRPGHGLEWVGEIFPGSGRTKYNEKFKGRATFTADTSSNMAYMQLSSLTTEDSAIYYCARYYYGSYYALDYWGQGTSVTVSS VL: DIVMTQSPSSLSVSAGEKVTLSCKSSQSLLHSGNQKNYLAWYQQKPGQAPKLLIYGASTRESGVPDRFTGSGSGTDFTLTISSVQAEDLAVYYCQNDHSYPLTFGAGTKLELK")
266
>>> experimental_value("ZV-48 mouse monoclonal antibody (antibody, V domains shown) VH: QVQLQQPGAELLKPGASVKLSCKASGYSFSNYWMHWVKQRPGQGPEWIGMIHPNSGNTKYNEKFKNKATLTVDKSSSMVYMQLSSLTSEDSAVFYCARLGNDMDYWGQGTSVTVSS VL: DIVMSQSPSSLAVSVGEKITMSCKSSQSLLYSNNEKNYLAWYQQKPGQSPKLLIYWASARDSGVPDRFTGSGSGTDFTLTISSVKAEDLAVFYCQQYYSYPYTFGGGTKLEIK")
35

Please examine the following record next.
Enquiry: What value of measured Kd is listed for ZV-54 mouse monoclonal antibody (antibody, V domains shown) VH: QVQLQQSGVGLARPGTSVKLSCKASGYSFTTYGISWVTQRPGQGLEWIGVIYPRSNNTYYNERFRGKATLTADKSSSSAYLELRGLTAEDSAVYFCARENYGSVYWGQGTTLTVSS VL: DIVMTQSQKFMSTSVGDRVTITCKASQSVGTAVAWYHQKPGQSPKLLIYSASNRYTGVPDRFTGSGSGTDFTLTITYMQSEDLADYFCQQFSNYPFTFGGGTKLEIK ?
Return: 7.9
